We begin with a simple list: items and their reported log10(Ki).
biological target: Melanocortin receptor 5 (Homo sapiens, UniProt P33032); test: Displacement of [125I]NDP-MSH from human recombinant MC5 receptor expressed in Sf9 cells
Sequence (P33032 whole entry): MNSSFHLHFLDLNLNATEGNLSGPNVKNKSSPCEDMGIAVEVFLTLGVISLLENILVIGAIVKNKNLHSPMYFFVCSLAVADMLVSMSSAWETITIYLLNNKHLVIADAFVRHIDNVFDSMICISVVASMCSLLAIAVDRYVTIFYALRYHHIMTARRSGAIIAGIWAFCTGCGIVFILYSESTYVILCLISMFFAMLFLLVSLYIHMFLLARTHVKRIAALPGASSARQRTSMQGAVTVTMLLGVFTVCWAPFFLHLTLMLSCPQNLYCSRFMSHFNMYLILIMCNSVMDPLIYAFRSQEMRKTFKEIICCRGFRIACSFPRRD
MEASURED_PARAMETER: log10(Ki) (log10 of the value in µM)

• NC1CCC(CC2CCC(N(Cc3c(F)cccc3F)C(=O)CCCc3c(Cc4ccc(O)cc4)[nH]c4ccccc34)CC2)CC1 (stereo not drawn) = 1.32
• NCCCCN(Cc1ccc2ccccc2c1)C(=O)Cc1c[nH]c2ccccc12 = 1.20
• N[C@H]1CC[C@H](NC(=O)N[C@H]2CC[C@H](N(Cc3ccccc3)C(=O)CCCc3c[nH]c4ccccc34)CC2)CC1 = 2.25
• N#Cc1ccc(CN(C(=O)CCCc2c(Cc3ccc(O)cc3)[nH]c3ccccc23)C2CCC(CC3CCC(N)CC3)CC2)cc1 (stereo not drawn) = 1.32
• CC(c1csc2ccccc12)N(CCCN)C(=O)CCCc1c[nH]c2ccccc12 (stereo not drawn) = 1.74
• CCOc1cc(CN(C(=O)CCCc2c(Cc3ccc(O)cc3)[nH]c3ccccc23)C2CCC(CC3CCC(N)CC3)CC2)ccc1OC (stereo not drawn) = 1.08
• NC(N)=NCCCN(Cc1ccc2ccccc2c1)C(=O)CCCc1c[nH]c2ccccc12 = 0.79
• NCCCCCN(CCCc1ccccc1)C(=O)CCCc1c[nH]c2ccccc12 = 1.28
• NC1CCC(CC2CCC(N(Cc3c(Cl)cccc3Cl)C(=O)CCCc3c(Cc4ccc(O)cc4)[nH]c4ccccc34)CC2)CC1 (stereo not drawn) = 1.34
• NCC1CCCC(CN(Cc2ccccc2)C(=O)CCCc2c[nH]c3ccccc23)C1 (stereo not drawn) = 0.94
• NC(N)=NCCCCN(Cc1ccc2ccccc2c1)C(=O)CCc1c[nH]c2ccccc12 = 1.32
• NCCCN(C(=O)/C=C/c1c[nH]c2ccccc12)C1CCc2ccccc2C1 (stereo not drawn) = 1.08
• COc1ccc(CN(C(=O)CCCc2c[nH]c3ccccc23)C2CCC(CC3CCC(N)CC3)CC2)cc1Br (stereo not drawn) = 2.44
• NCC1CCCC(CN(C/C(Cl)=C/c2ccccc2)C(=O)CCCc2c[nH]c3ccccc23)C1 (stereo not drawn) = 0.96
• NC1CCC(CC2CCC(N(C/C(Cl)=C/c3ccccc3)C(=O)COc3ccc4ccccc4c3)CC2)CC1 (stereo in doubt; form 8) = 1.62
• NCCCCN(Cc1ccc2ccccc2c1)C(=O)c1c[nH]c2ccccc12 = 1.26
• NCCCN(CCc1ccccc1)C(=O)CCCc1c[nH]c2ccccc12 = 1.52
• NC1CCC(CC2CCC(N(Cc3ccccc3F)C(=O)CCCc3c(Cc4ccc(O)cc4)[nH]c4ccccc34)CC2)CC1 (stereo not drawn) = 1.56
